Procedure Text: Brain penetration in rats, brain to plasma ratios after 24 h IV infusion
Assay type: in vivo, Sprague-Dawley rats
Conditions Used: Sprague-Dawley, rat, brain / plasma, intravenous, 1 mg/kg/hr, Table 3B, fu,brain from brain slice; read-out: Rat Kp, uu Brain slice
Attribute Measured: Kp uu at 24 h

I = C[C@](N)(c1ccc(F)cc1)c1cnc(N2CCN(c3ncnn4cc(-c5cnn([C@@H]6CC[C@H]6O)c5)cc34)CC2)nc1 (single isomer, unassigned) [Compound 11]
II = C[C@](N)(c1ccc(F)cc1)c1cnc(N2CCN(c3ncnn4cc(-c5cnn([C@H]6CC[C@@H]6O)c5)cc34)CC2)nc1 (single isomer, unassigned) [Compound 10]
In: Quick one: lower Kp uu at 24 h, I or II ? Answer by stating the label of the chosen item.
Out: I
(I: 0.03, II: 0.07)

FYI, the data here is from patent US20230391780A1.
